System: Acinetobacter baumannii ATCC 17978
protocol: Antimicrobial susceptibility testing: 90% growth inhibitory concentration (IC90) determination
Type: cell-based
condition set: Acinetobacter baumannii, ATCC17978, 16 h, 90% growth inhibitory concentration; Acinetobacter baumannii ATCC17978; Iso-Sensitest broth, OD 600 nm over 16h; read-out: ATCC17978 IC90
Structures can show the parent of a compound that is named as a salt.
attribute measured: IC90
Returns: string containing the number followed by the unit.

Consider the compound COc1ccc(-c2cnc3c(Nc4ccc(C(=O)N[C@H](C)CN)c(Cl)c4)nccn23)c(F)c1F [Example 504] and give its measured IC90.
0.1 µM

Now try CCc1cc(Nc2nccn3c(-c4ccc(Cl)cc4Cl)cnc23)ccc1C(=O)NCCNC(=O)[C@@H](N)CCCNC(=N)N [Example 346, hydrochloride] .
0.98 µM

Now try CCc1cc(Nc2nccn3c(-c4ccc(Oc5ccc(OC)cn5)c(F)c4F)cnc23)ccc1C(=O)NCCNC(=O)[C@H](N)CCCNC(=N)N [Example 447] .
0.63 µM

Now try CCc1cc(Nc2nccn3c(-c4ccc(OCC#CCO)c(F)c4F)cnc23)ccc1C(=O)NCCCN [Example 419] .
0.67 µM

Now try COc1ccc(-c2cnc3c(Nc4ccc(C(=O)N5CCC(C(=O)NCC6CN(C)C6)CC5)c(C)c4)nccn23)cc1F [REF 114] .
0.47 µM

Now try COc1ccc(-c2cnc3c(Nc4ccc(C(=O)NCCCCCN)c(C)c4)nccn23)cc1 [Example 184] .
0.22 µM

Now try CCc1cc(Nc2nccn3c(-c4ccc(OCC#N)c(F)c4F)cnc23)ccc1C(=O)NCCNC(=O)[C@@H](N)CCCCN [Example 143, formate] .
0.16 µM

The values you see were collected from patent US20230012368A1.
